- Species on record: Homo sapiens
- assay.overview: Selectivity index, ratio of IC50 for human erythrocytes Ache to IC50 for human serum BuChe
Overview of reported Ratio IC50 across a group of compounds:
Write no unit; give the number alone.

Some compounds with recorded Ratio IC50:
> print(dat)
                           molecular.string  test.value
1  CCN(CC)C(=O)Oc1ccc(/C=C/C(=O)N2CCc3ccccc3C2)cc1OC           2
2  CCN(C)C(=O)Oc1ccc(/C=C/C(=O)N2CCN(Cc3ccccc3)CC2)cc1         0.5

Form field Ratio IC50, entry "CCN(C)C(=O)Oc1ccc(/C=C/C(=O)N2CCc3ccccc3C2)cc1" : 1.8

Form field Ratio IC50, entry "COc1cc(/C=C/C(=O)N2CCC(Cc3ccccc3)CC2)ccc1OC(=O)N(c1ccccc1)c1ccccc1" : 0.9

Form field Ratio IC50, entry "CCN(C)C(=O)Oc1ccc(/C=C/C(=O)N2CCCCC2)cc1OC" : 0.85

Form field Ratio IC50, entry "COc1cc(/C=C/C(=O)N2CCc3ccccc3C2)ccc1OC(=O)N(c1ccccc1)c1ccccc1" : 1.2
